System: CD2F1 mice, P1798 lymphosarcoma sc, tumor weight T/C
procedure_details: NCI In Vivo Anticancer Drug Screen. Data for tumor model P1798 Lymphosarcoma (subcutaneous) in CD2F1 (CDF1) mice
experimental_setup: endpoint: mean tumor weight; dose: 1.0 mg/kg/injection; schedule: Q01DX010 (ip); vehicle: saline; higher = larger tumour
Below, each entry is listed alongside its reported T/C.

compound: CS(=O)(=O)OCCN(CCOS(C)(=O)=O)c1ccc(N=O)cc1
T/C: 69 % of control
--
compound: NC(Cc1c[nH]c2ccc(N(CCCl)CCCl)cc12)C(=O)O (stereo not given)
T/C: 40 % of control

Q: For the compound shown here, N#Cc1cn(C2OC(CO)C(O)C2O)c2ncnc(N)c12 (stereo not given) , give the reported T/C.
Ans: 68 % of control

Q: For CO[C@@]12[C@H](COC(N)=O)C3=C(C(=O)C(C)=C(N)C3=O)N1C[C@@H]1N[C@@H]12 then?
Ans: 36 % of control

Q: Moving on to the next compound: Nc1nc(F)nc2c1ncn2C1OC(CO)C(O)C1O (stereo not given)
Ans: 94 % of control

* * *

Test system: CD2F1 mice, P1798 lymphosarcoma sc, tumor weight T/C
procedure_details: NCI In Vivo Anticancer Drug Screen. Data for tumor model P1798 Lymphosarcoma (subcutaneous) in CD2F1 (CDF1) mice
experimental_setup: endpoint: mean tumor weight; dose: 60.0 mg/kg/injection; schedule: Q01DX010 (ip); vehicle: saline; higher = larger tumour
Experimental: The antitumor activity of compounds was measured in mice bearing transplantable tumors. Survival or tumor size were measured and the results are expressed as the measurement made in the treated group (T) divided by the measurement made in the vehicle treated control group (C). The tumor model used in this assay is P1798 Lymphosarcoma (subcutaneous) in CD2F1 (CDF1) mice
Listed next: entries and their corresponding T/C.

# example entries with known answers
compound: CCOC(C)C(/C=N/NC(N)=S)=NNC(N)=S (stereo not given)
target_desc: CD2F1 mice, P1798 lymphosarcoma sc, tumor weight T/C
measured_value: 100 % of control
//
compound: CN(N=O)C(=O)NC(C=O)C(O)C(O)C(O)CO (stereo not given)
target_desc: CD2F1 mice, P1798 lymphosarcoma sc, tumor weight T/C
measured_value: 64 % of control
//
compound: CC(/C=N/N=C(N)N)=N\N=C(N)N
target_desc: CD2F1 mice, P1798 lymphosarcoma sc, tumor weight T/C
measured_value: 50 % of control
//
compound: Nc1ccn(C2OC(CO)C(O)C2O)c(=O)n1 (stereo not given)
target_desc: CD2F1 mice, P1798 lymphosarcoma sc, tumor weight T/C
measured_value: 1 % of control

Could you now look at the following compound, please?
Q: Given the compound NC(=O)NO , what is its reported T/C?
Ans: 60 % of control

* * *

System: CD2F1 mice, P1798 lymphosarcoma sc, tumor weight T/C
procedure_details: NCI In Vivo Anticancer Drug Screen. Data for tumor model P1798 Lymphosarcoma (subcutaneous) in CD2F1 (CDF1) mice
experimental_setup: endpoint: mean tumor weight; dose: 50.0 mg/kg/injection; schedule: Q01DX010 (ip); vehicle: saline; higher = larger tumour
Parameter: T/C. Scope: all listed entries.

compound: CC(=O)NCCCCCCNC(C)=O
T/C: 112 % of control
--
compound: NC(N)=NCCCC(N)C(=O)NCCCCCCNC(=O)C(N)CCCN=C(N)N (configuration not stated)
T/C: 85 % of control
--
compound: O=c1cnn(C2OC(CO)C(O)C2O)c(=O)[nH]1 (configuration not stated)
T/C: 80 % of control
--
compound: CCc1c(CC(=O)O)c2cc(C)ccc2n1Cc1ccc(Cl)cc1
T/C: 54 % of control
--
compound: Nc1nc(=O)n(C2CC(O)C(CO)O2)cc1Br (configuration not stated)
T/C: 81 % of control

Q: Name the reported T/C value associated with the compound COC1C(OC(=O)/C=C/C=C/C=C/C=C/C(=O)O)CCC2(CO2)C1C1(C)OC1CC=C(C)C (configuration not stated)
Ans: 46 % of control

Q: Next entry: Cc1cc2nc3c(=O)[nH]c(=O)nc-3n(CC(O)C(O)C(O)C(O)CO)c2cc1C (configuration not stated)
Ans: 86 % of control

Q: Same lookup for CC(=O)NCCSC(=O)C(=O)SCCNC(C)=O , please.
Ans: 104 % of control
